# target.entity: Mitogen-activated protein kinase kinase kinase 8 (Homo sapiens)
# Sequence (P41279 whole entry): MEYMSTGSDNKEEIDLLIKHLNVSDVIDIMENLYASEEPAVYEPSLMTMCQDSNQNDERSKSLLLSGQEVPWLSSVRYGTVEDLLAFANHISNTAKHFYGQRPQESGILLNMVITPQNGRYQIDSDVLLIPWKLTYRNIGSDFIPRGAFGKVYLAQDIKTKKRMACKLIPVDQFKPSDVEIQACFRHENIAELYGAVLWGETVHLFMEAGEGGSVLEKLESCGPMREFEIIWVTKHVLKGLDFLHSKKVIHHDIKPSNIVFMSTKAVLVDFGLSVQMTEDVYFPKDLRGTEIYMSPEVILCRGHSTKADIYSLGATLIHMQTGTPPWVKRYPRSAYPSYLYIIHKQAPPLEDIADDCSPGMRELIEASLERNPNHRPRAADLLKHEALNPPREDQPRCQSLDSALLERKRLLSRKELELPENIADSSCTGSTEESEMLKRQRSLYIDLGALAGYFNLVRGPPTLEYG
# protocol.description: Inhibition of recombinant Tpl-2 (unknown origin) using peptide as substrate
observation.type: IC50

IN: Respond only with IC50 recorded for COc1cc2ncc(C#N)c(Nc3ccc(OCc4ccccn4)c(Cl)c3)c2cc1NC(=O)/C=C/CN(C)C
OUT: > 18 µM

----------
# Test system: A-431
# protocol.description: Antiproliferative activity against human A-431 cells measured after 2 days by sulforhodamine B assay
# Format: functional, cell-based
# test.settings: A-431, 48 h
observation.type: pIC50
One number for each entry, as −log10 of the molar value.

IN: Quick one: give measured pIC50 for COc1cc2ncc(C#N)c(Nc3ccc(OCc4ccccn4)c(Cl)c3)c2cc1NC(=O)/C=C/CN(C)C
OUT: 7.09
